Target: RORγ ligand binding domain (LBD) (Homo sapiens, UniProt P51449)
Construct: made in house; host or cells: E. coli BL-21 (BL3), vector pDEST15
Assay: TR-FRET Activity Assay (ligand sensing, RORγ-LBD / coactivator peptide interaction, LANCE)
Assay type: biochemical
Conditions: first value of the cell FRET/FF/REN; TR-FRET activity assay; read-out: pIC50 (FRET) (converted)
This section presents compounds with their documented IC50 values.
Express the result in µM but write the number alone.

Some entries whose results are on file:
- Cc1c(C(=O)NCC(O)(C(F)(F)F)C(F)(F)F)cc(-c2cc(C(C)(C)C)cc(C(C)(C)C)c2)n1CC1CCCCC1: 3.98
- Cc1c(C(=O)NC2CCOCC2)cc(-c2cc(C(=O)NC(C)C)cc(C(C)(C)O)c2)n1CC1CCCCC1: 7.94
- Cc1c(C(=O)N[C@H]2C[C@H](C(=O)O)C2)cc(-c2ccc(S(=O)(=O)NC(C)(C)C)c3c2OCCO3)n1CC1CCCCC1: 3.16

Let us move to another entry and its IC50.
I'd like to know its IC50. The compound in question is Cc1c(C(=O)NC2CCOCC2)cc(-c2ccc(S(=O)(=O)NC(C)(C)C)c(C(F)(F)F)c2)n1CC1CCCCC1
0.126

====

Target: RORγ ligand binding domain (LBD) (Homo sapiens, UniProt P51449)
Construct: made in house; host or cells: E. coli BL-21 (BL3), vector pDEST15
Sequence (P51449 269-508 limits assumed): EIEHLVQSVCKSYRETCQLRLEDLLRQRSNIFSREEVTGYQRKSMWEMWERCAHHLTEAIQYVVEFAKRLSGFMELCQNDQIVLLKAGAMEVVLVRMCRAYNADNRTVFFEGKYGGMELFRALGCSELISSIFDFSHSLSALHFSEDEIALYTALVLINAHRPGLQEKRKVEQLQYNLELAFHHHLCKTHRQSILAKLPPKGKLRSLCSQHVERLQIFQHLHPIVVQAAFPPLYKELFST
Experiment: TR-FRET Activity Assay (ligand sensing, RORγ-LBD / coactivator peptide interaction, LANCE)
Assay type: biochemical
Conditions: first value of the cell FRET/FF/REN; TR-FRET activity assay; read-out: pIC50 (FRET) (converted)
The label is Satisfied for IC50 below 500 nM and Not satisfied for IC50 equal to or exceeding 500 nM.

Below, 3 compounds whose answers are already recorded.
• Cc1c(C(=O)NC2CCOCC2)cc(-c2ccc(CN3CCOCC3(C)C)c(C(F)(F)F)c2)n1CC1CCCCC1 = Satisfied
• Cc1c(C(=O)NCCN2CCN(S(C)(=O)=O)CC2)cc(-c2cc(C(C)(C)C)cc(C3(C)CC3)c2)n1CC1CCCCC1 = Satisfied
• Cc1c(C(=O)NC2CCOCC2)cc(-c2ccc(S(=O)(=O)NCC(F)(F)F)c(C(C)(C)C)c2)n1CC1CCCCC1 = Not satisfied

Confirm or reject: IC50 of Cc1c(C(=O)NC2COC2)cc(-c2ccc(C(=O)N3CCCCC3)c(C(C)(C)C)c2)n1CC1CCCCC1 lies strictly below 500 nM
Not satisfied

====

Target: RORγ ligand binding domain (LBD) (Homo sapiens)
Construct: made in house; host or cells: E. coli BL-21 (BL3), vector pDEST15
Test: TR-FRET Activity Assay (ligand sensing, RORγ-LBD / coactivator peptide interaction, LANCE)
Assay type: biochemical
Conditions: first value of the cell FRET/FF/REN; TR-FRET activity assay; read-out: pIC50 (FRET) (converted)
Label yes when IC50 is strictly below 1000 nM; otherwise label no.

Study these solved cases before continuing.
- Cc1c(C(=O)NCCCCCS(N)(=O)=O)cc(-c2cc(C(C)(C)C)c3c(c2)C2(CCO3)CC2)n1CC1CCCCC1: yes
- Cc1c(C(=O)NCCC(C)(C)C(=O)O)cc(-c2ccc(S(=O)(=O)NC(C)(C)C)c3ccccc23)n1CC1CCCCC1: no
- Cc1c(C(=O)NCCN2CCOCC2)cc(-c2ccc(S(=O)(=O)NC(C)(C)C)c(C(C)(C)C)c2)n1CC1CCCCC1: no
- Cc1c(C(=O)NC2CCOCC2)cc(-c2ccc(S(=O)(=O)NC(C)(C)C)c(C(F)(F)F)c2F)n1CC1CCCCC1: yes
- Cc1c(C(=O)NCC(C)(C)NC(=O)CCC(=O)O)cc(-c2cc(C(C)(C)C)c3c(c2)C2(CCO3)CC2)n1CC1CCCCC1: no
- Cc1c(C(=O)NCC2(CO)COC2)cc(-c2cc(C(C)(C)C)c3c(c2)C2(CCO3)CC2)n1CC1CCCCC1: yes
- CCC(C)(C)NC(=O)c1cc(-c2cc(C(=O)NC3COC3)c(C)n2CC2CCCCC2)cc(C(F)(F)F)c1: yes
- Cc1c(C(=O)NC2CCOCC2)cc(-c2ccc(S(=O)(=O)NC3(C#N)CC3)c(C(F)(F)F)c2)n1CC1CCCCC1: yes

Answer whether the compound Cc1c(C(=O)NCC2CC2)cc(-c2cc(C(C)(C)C)c3c(c2)C2(CCO3)CC2)n1CC1CCCCC1 has IC50 strictly less than 1000 nM
yes

Now try Cc1c(C(=O)N2CCS(=O)(=O)CC2)cc(-c2ccc(S(=O)(=O)NC(C)(C)C)c(C(F)(F)F)c2)n1CC1CCCCC1 .
yes

Now the same for Cc1c(C(=O)NC[C@@H]2CCCO2)cc(-c2cc(C(C)(C)C)c3c(c2)C2(CCO3)CC2)n1CC1CCCCC1
yes

Input Cc1c(C(=O)N2CCOCC2)cc(-c2cc(C(C)(C)C)cc(C(C)(C)C)c2)n1CC1CCCCC1
yes

Here is the next compound: Cc1c(C(=O)NCC(C)(C)O)cc(-c2cc(C(C)(C)C)cc(C(=O)NC(C)(C)C)c2Cl)n1CC1CCCCC1
no

Try the compound Cc1c(C(=O)NC2CCS(=O)(=O)C2)cc(-c2cc(C(C)(C)C)c3c(c2)C2(CCO3)CC2)n1CC1CCCCC1 (stereo not shown)
yes

Note, next up: Cc1c(C(=O)NC23CCC(C(=O)O)(CC2)C3)cc(-c2cc(C(C)(C)O)cc(C3(C)CC3)c2)n1CC1CCCCC1
no

Try the compound Cc1c(C(=O)NCC(C)(C)O)cc(-c2cc(C(C)N3CCOCC3)cc(C(C)(C)C)c2)n1CC1CCCCC1 (stereo not shown)
no

Input Cc1c(C(=O)NC2COC2)cc(-c2ccc(C(=O)N(C)C(C)(C)C)c(C(C)(C)C)c2)n1CC1CCCCC1
no
